assay: qHTS Assay for Identification of Small Molecule Agonists for Hypoxia Response Element Signaling Pathway (AID 914); conditions: ME-180 (cervical carcinoma) HRE-bla reporter, beta-lactamase ratio, CoCl2, 17 h; stronger effect = higher value; further: % of control where 0% means no effect
Records with an inconclusive call do not appear. Calls of active or inactive are those of the source. The call rests on the fitted dose curve; in most records, active means well fitted activation curve with a large enough effect in the signal ratio, with a control signal flat (not every such curve was filed as active); inconclusive means small, poorly fitted or top-dose-only effect, or effect the other way, or a change in a side signal; inactive means flat fitted curve, though single readings scatter; the % refers to the signal ratio.
Catalogue of molecules with associated activation

>  <smiles_repr>
COc1ncc2nc(-c3cccs3)c(=O)n(CCC#N)c2n1

>  <activation>
25.6% (inactive)

$$$$
>  <smiles_repr>
CN(C)c1ncc2nc(CCc3ccccc3)c(=O)n(CCc3ccccc3)c2n1

>  <activation>
21.3% (inactive)

$$$$
>  <smiles_repr>
COc1cccc(-c2ccc3ncnc(NCc4cnc(C)cn4)c3c2)c1

>  <activation>
-8.99% (inactive)

$$$$
>  <smiles_repr>
CN(C)c1nc(-c2cccc(NS(C)(=O)=O)c2)nc2ccccc12

>  <activation>
22.5% (inactive)

$$$$
>  <smiles_repr>
CC(NC(=O)Nc1ccc(O)cc1)(C(F)(F)F)C(F)(F)F

>  <activation>
8.6% (inactive)

$$$$
>  <smiles_repr>
COc1ccccc1-c1nccc(N2CCN(C)CC2)n1

>  <activation>
26.2% (inactive)

$$$$
>  <smiles_repr>
COc1ccc(Oc2ncc3nc(C)c(=O)n(Cc4cccs4)c3n2)cc1

>  <activation>
-21.2% (inactive)

$$$$
>  <smiles_repr>
N#Cc1cccc(-c2nc(NCCN3CCOCC3)c3ccccc3n2)c1

>  <activation>
-16.9% (inactive)

$$$$
>  <smiles_repr>
CN(C)C(=O)c1ccc(-c2ccc3ncnc(Nc4ccc(F)cc4)c3c2)cc1

>  <activation>
7.84% (inactive)

$$$$
>  <smiles_repr>
COc1cccc(-c2nc(NCc3cccnc3)c3ccccc3n2)c1

>  <activation>
-25.6% (inactive)

$$$$
>  <smiles_repr>
COc1ccc(-n2c(=O)c(CCc3ccccc3)nc3cnc(OC)nc32)cc1

>  <activation>
-18.9% (inactive)

$$$$

Data credit: PubChem BioAssay (NCATS)
